Molecular target: human RXFP3 (Homo sapiens)
Construct: expressed in transfected cells; host or cells: HEK293T
Sequence (Q9NSD7 1-469): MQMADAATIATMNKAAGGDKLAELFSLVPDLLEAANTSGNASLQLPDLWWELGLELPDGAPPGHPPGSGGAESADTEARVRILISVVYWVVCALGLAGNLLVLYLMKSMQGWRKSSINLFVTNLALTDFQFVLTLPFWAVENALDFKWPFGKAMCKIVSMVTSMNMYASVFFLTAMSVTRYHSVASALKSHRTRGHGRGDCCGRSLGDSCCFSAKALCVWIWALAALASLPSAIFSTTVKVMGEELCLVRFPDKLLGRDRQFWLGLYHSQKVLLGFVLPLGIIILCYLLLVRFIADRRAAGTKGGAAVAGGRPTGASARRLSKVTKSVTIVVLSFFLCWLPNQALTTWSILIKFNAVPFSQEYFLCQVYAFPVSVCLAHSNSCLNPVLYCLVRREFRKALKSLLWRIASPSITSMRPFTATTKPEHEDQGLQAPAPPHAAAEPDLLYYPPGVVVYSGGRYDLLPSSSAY
Experiment: Receptor binding assay, competition with NanoLuc-conjugated R3/I5 tracer
Conditions: HEK293T cells transiently overexpressing human RXFP3; 0.5 nM NanoLuc-conjugated R3/I5 tracer; 21 °C, 2 h; mean ± SE, n = 3; SEM
No end group written: not given here.
This section presents substances with their documented pIC50 RXFP3 values.
Reply: number alone, nothing else.

substance="[L(B9)R,Y(B17)F]INSL5: recombinant mature two-chain INSL5 mutant (Insulin-like peptide INSL5 B … KESVRLCGREYIRTVIFICASSRW; Insulin-like peptide INSL5 A … QDLQTLCCTDGCSMTDLSALC; ends and bridges not checked; cysteine pairing not given here; UniProt Q9Y5Q6 23-46; Q9Y5Q6 115-135, looked up, variant L9R Y17F)" property_measured="pIC50 RXFP3" reported=8.17
substance="[A(B20)G,S(B21)G]INSL5: recombinant mature two-chain INSL5 mutant (Insulin-like peptide INSL5 B … KESVRLCGLEYIRTVIYICGGSRW; Insulin-like peptide INSL5 A … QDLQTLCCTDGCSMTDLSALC; not fully specified; ends and bridges not checked; UniProt Q9Y5Q6 23-46; Q9Y5Q6 115-135, looked up, variant A20G S21G)" property_measured="pIC50 RXFP3" reported=6.01

--- query ---
Which measured pIC50 RXFP3 value corresponds to [Y(B5)E,R(B12)L,F(B20)Y,G(B23)A,G(B24)S]R3/I5: recombinant mature two-chain R3/I5 mutant (chain 1 RAAPEGVRLCGLEFIRAVIYTCASSRW; chain 2 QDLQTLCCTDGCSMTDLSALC; disulfide (positions not given here); not fully specified; also: A-chain N-terminal pyroglutamate likely) ? 8.11

* * *

target: human RXFP4 (Homo sapiens, UniProt Q8TDU9); construct: expressed in transfected cells; host or cells: HEK293T; experiment: Receptor binding assay, competition with NanoLuc-conjugated R3/I5 tracer; conditions: HEK293T cells transiently overexpressing human RXFP4; 0.5 nM NanoLuc-conjugated R3/I5 tracer; 21 °C, 2 h; mean ± SE, n = 3; SEM
Sequence (Q8TDU9 whole entry): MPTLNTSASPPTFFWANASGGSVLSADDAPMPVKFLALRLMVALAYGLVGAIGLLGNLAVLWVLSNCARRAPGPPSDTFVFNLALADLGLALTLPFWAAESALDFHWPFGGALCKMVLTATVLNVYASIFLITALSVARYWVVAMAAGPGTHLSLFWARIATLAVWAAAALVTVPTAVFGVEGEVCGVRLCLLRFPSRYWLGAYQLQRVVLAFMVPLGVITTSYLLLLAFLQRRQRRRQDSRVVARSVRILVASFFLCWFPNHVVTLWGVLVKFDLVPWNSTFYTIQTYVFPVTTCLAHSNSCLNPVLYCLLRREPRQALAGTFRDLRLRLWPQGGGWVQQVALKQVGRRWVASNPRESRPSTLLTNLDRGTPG
No end group written: not given here.
Reported pIC50 RXFP4 is given for each of the following substances.

substance="insulin-like peptide 5 (Insulin-like peptide INSL5 B … KESVRLCGLEYIRTVIYICASSRW; Insulin-like peptide INSL5 A … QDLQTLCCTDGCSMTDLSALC; UniProt Q9Y5Q6 23-46; Q9Y5Q6 115-135, looked up) [recombinant mature two-chain human INSL5, cognate agonist of RXFP4, reference compound]" property_measured="pIC50 RXFP4" reported="7.75 ± 0.02"

Looking for the measured pIC50 RXFP4 of [R(B12)L,F(B20)Y,G(B23)A,G(B24)S]R3/I5: recombinant mature two-chain R3/I5 mutant (chain 1 RAAPYGVRLCGLEFIRAVIYTCASSRW; chain 2 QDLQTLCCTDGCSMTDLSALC; disulfide (positions not given here); not fully specified; also: A-chain N-terminal pyroglutamate likely) , can you help? 7.75 ± 0.05

Same read-out for [I(B18)T]INSL5: recombinant mature two-chain INSL5 mutant (Insulin-like peptide INSL5 B … KESVRLCGLEYIRTVIYTCASSRW; Insulin-like peptide INSL5 A … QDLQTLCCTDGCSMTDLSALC; ends and bridges not checked; cysteine pairing not given here; UniProt Q9Y5Q6 23-46; Q9Y5Q6 115-135, looked up, variant I18T) ? 7.43 ± 0.05

Origin of values: paper PMC4939597
